From: ChEMBL document CHEMBL1136204

# SYSTEM NAME: Thymidylate kinase (Mycobacterium tuberculosis) (UniProt P9WKE1)
# Sequence (P9WKE1 whole entry): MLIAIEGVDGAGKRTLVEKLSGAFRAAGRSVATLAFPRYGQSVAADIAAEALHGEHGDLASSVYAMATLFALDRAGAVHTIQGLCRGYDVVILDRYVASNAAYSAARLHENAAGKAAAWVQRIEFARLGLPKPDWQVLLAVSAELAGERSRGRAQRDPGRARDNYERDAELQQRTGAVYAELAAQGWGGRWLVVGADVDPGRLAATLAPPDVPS
# MEASUREMENT NOTES: Kinetic parameter Vm of thymidine monophosphate kinase (TMPKmt) in Mycobacterium tuberculosis was determined
# Type: functional
MEASURED PARAMETER: Vm (µM/min/mg)
Numbers only, in µM/min/mg.

O=c1[nH]c(=O)n([C@H]2C[C@H](O)[C@@H](COP(=O)(O)O)O2)cc1F = 4.7

Hi there! I need Vm for each item below, if you can.
1. O=c1[nH]c(=O)n([C@H]2C[C@H](O)[C@@H](COP(=O)(O)O)O2)cc1I
2. O=c1ccn([C@H]2C[C@H](O)[C@@H](COP(=O)(O)O)O2)c(=O)[nH]1

Response:
1. 7.5
2. 3.5

Prompt: Look up Vm for this compound: `O=c1[nH]c(=O)n([C@H]2C[C@H](O)[C@@H](COP(=O)(O)O)O2)cc1Br`
Response: 9.8
